Cited source for all entries: paper PMC7367873

- Test system: GFP-14-3-3β and its binding proteins
- experimental-details: GFP-14-3-3β co-IP with LC-MS/MS label-free quantification, untreated versus PP1c-treated
- Parameters: species or system human
- condition-context: PP1 vs untreated; LFQ intensities; 3 replicates each
measured-metric: Difference (log2), PP1 vs untreated
A number alone suffices; assume log2.

Examples with answers:
SRP14 (protein, UniProt P37108 2-136, looked up) Signal recognition particle …: VLLESEQFLTELTRLFQKCRTSGSVYITLKKYDGRTKPIPKKGTVEGFEPADNKCLLRATDGKKKISTVVSSKEVNKFQMAYSNLLRANMDGLKKRDKKNKTKKTKAAAAAAAAAPAAAATAPTTAATTAATAAQ : 0.3437
C14orf166 (protein, UniProt Q9Y224 1-244, looked up) RNA transcription, …: MFRRKLTALDYHNPAGFNCKDETEFRNFIVWLEDQKIRHYKIEDRGNLRNIHSSDWPKFFEKYLRDVNCPFKIQDRQEAIDWLLGLAVRLEYGDNAEKYKDLVPDNSKTADNATKNAEPLINLDVNNPDFKAGVMALANLLQIQRHDDYLVMLKAIRILVQERLTQDAVAKANQTKEGLPVALDKHILGFDTGDAVLNEAAQILRLLHIEELRELQTKINEAIVAVQAIIADPKTDHRLGKVGR : 0.4707
CAV1 (protein, UniProt Q03135 2-178, looked up) Caveolin-1: SGGKYVDSEGHLYTVPIREQGNIYKPNNKAMADELSEKQVYDAHTKEIDLVNRDPKHLNDDVVKIDFEDVIAEPEGTHSFDGIWKASFTTFTVTKYWFYRLLSALFGIPMALIWGIYFAILSFLHIWAVVPCIKSFLIEIQCISRVYSIYVHTVCDPLFEAVGKIFSNVRINLQKEI : 0.6719

Query: Fill in Difference (log2), PP1 vs untreated for record SLC25A5 (protein, UniProt P05141 1-298, looked up) ADP/ATP translocase 2: MTDAAVSFAKDFLAGGVAAAISKTAVAPIERVKLLLQVQHASKQITADKQYKGIIDCVVRIPKEQGVLSFWRGNLANVIRYFPTQALNFAFKDKYKQIFLGGVDKRTQFWLYFAGNLASGGAAGATSLCFVYPLDFARTRLAADVGKAGAEREFRGLGDCLVKIYKSDGIKGLYQGFNVSVQGIIIYRAAYFGIYDTAKGMLPDPKNTHIVISWMIAQTVTAVAGLTSYPFDTVRRRMMMQSGRKGTDIMYTGTLDCWRKIARDEGGKAFFKGAWSNVLRGMGGAFVLVLYDEIKKYT
Response: 0.4677

Query: Fill in Difference (log2), PP1 vs untreated for record RCN1 (protein, UniProt Q15293 30-331, looked up) Reticulocalbin-1: KPTVRKERVVRPDSELGERPPEDNQSFQYDHEAFLGKEDSKTFDQLTPDESKERLGKIVDRIDNDGDGFVTTEELKTWIKRVQKRYIFDNVAKVWKDYDRDKDDKISWEEYKQATYGYYLGNPAEFHDSSDHHTFKKMLPRDERRFKAADLNGDLTATREEFTAFLHPEEFEHMKEIVVLETLEDIDKNGDGFVDQDEYIADMFSHEENGPEPDWVLSEREQFNEFRDLNKDGKLDKDEIRHWILPQDYDHAQAEARHLVYESDKNKDEKLTKEEILENWNMFVGSQATNYGEDLTKNHDEL
Response: 0.5407
